src = PubChem BioAssay (NCI)

Assign growth inhibition to each entry below.
test: NCI Yeast Anticancer Drug Screen. Data for the rad18 strain (AID 177); conditions: S. cerevisiae rad18 mutant growth inhibition; at 3.7 µM; active compounds read high
Compounds without any hit were thinned out: in the full panel of roughly 79,000, 15% have a hit.
One number for each entry, in %.

[[record]]
compound = "CC1OC(O[C@H]2/C=C/C=C/C=C/C=C/C=C/C=C/C=C/[C@H](C)[C@@H](O)[C@@H](C)[C@H](C)OC(=O)C[C@H](O)C[C@H](O)CC[C@@H](O)[C@H](O)C[C@H](O)C[C@]3(O)C[C@H](O)[C@@H](C(=O)O)[C@H](C2)O3)C(O)C(N)C1O (stereo partly drawn)"
test_result = 35

[[record]]
compound = "CSc1nc(C)c(CCOC(C)=O)c(N=P(c2ccccc2)(c2ccccc2)c2ccccc2)n1"
test_result = 12


List growth inhibition for every entry below, keeping the order given.
1. CCCC(=O)Oc1ccc(/C=N/NC(N)=S)nc1
2. CN(CCN(C)Cc1ccccc1)Cc1ccccc1
3. CN1C(=O)c2ccc3ccccc3c2C1=O
4. O=C1C(=O)c2ccccc2C(O)=C1C(C1=C(O)c2ccccc2C(=O)C1=O)c1ccc(Cl)cc1
5. COC(=O)NC1C(C)OC(OC2C/C=C(/C)C3C=CC4C(OC5CC(OC6CC(O)C(OC7CC(O)C(OC)C(C)O7)C(C)O6)C(O)C(C)O5)C(C)CC(C)C4C3(C)/C(O)=C3\C(=O)OC4(CC(C)C(CO)=CC4/C=C\2C)C3=O)CC1(C)[N+](=O)[O-] (stereo not drawn)
6. CN(C)c1nc(=Nc2cccc(Cl)c2)ss1

Response:
1: 2; 2: 14; 3: 15; 4: 38; 5: 17; 6: 48
